Where do these numbers come from? They come from PubChem BioAssay.

# assay_info: blockers of RIG-like receptor reporter activation – cell-based, Sendai virus stimulus, luciferase, 10K MLSCN set, TLR/RLR signaling modifier project, primary screen (AID 602276);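 further: firefly luciferase from ISG56 promoter only with Renilla not read in this screen; 0% = Sendai virus plus DMSO and 100% = medium plus DMSO without virus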
# applied_conditions: HEK293 RL24 IRF3 luciferase reporter, at 10 µM, stronger effect = higher value
quantity_measured: inhibition (%)
Numbers only, in %.

// below: answered compounds
{"columns": ["compound", "quantity_measured", "unit_abbreviation", "recorded_value"],
 "data": [
  ["CC1=NC(Nc2nc(C)c3ccccc3n2)=NC(C)(C)C1", "inhibition", "%", 3.86],
  ["COc1ccc2c(=O)c3c(=O)n(Cc4ccco4)c(-c4cc(OC)c(OC)c(OC)c4)nc3oc2c1", "inhibition", "%", 3.4],
  ["Cc1nnc(NC(=O)CSc2nnc(-c3ccc(S(=O)(=O)N4CCCC4)cc3)n2C)s1", "inhibition", "%", 17.1],
  ["COC(=O)Cn1c2ccccc2c2nc(C)sc21", "inhibition", "%", -14.8]
]}

For every item below, please supply its inhibition.
1. CCCNC(=O)N1CCN(S(=O)(=O)c2ccc(C)c(C)c2)CC1
2. Cn1c(=O)c2c(nc(CN3CCc4ccccc4C3)n2Cc2cccc(Cl)c2)n(C)c1=O
3. O=C(/C=C/N1CCOCC1)c1ccc(-c2ccccc2)cc1
4. CCOc1ccc(CCN2C(=O)C3C4C=CC(C4)C3C2=O)cc1OCC (stereo not given)
5. COc1ccc(S(=O)(=O)N2CCN(S(=O)(=O)c3ccc4c(c3)OCCO4)CC2)cc1C
6. CCOc1cccc(-c2nnc3n2N=C(c2cc(OC)ccc2OC)CS3)c1

Reply text:
1: -6.27; 2: 19.5; 3: -22.9; 4: 16.8; 5: 16.8; 6: 19.6

----------
# assay_info: reduction of polyQ htt aggregates in cells – imaging, exon1htt(103Q)mCFP cells, high-content imaging, primary screen (AID 483);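 further: compound exposure lasted 3 days before fixation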
# applied_conditions: exon1htt(103Q)mCFP cell line, aggregate imaging, at 2 µM; stronger effect = higher value
quantity_measured: inhibition of aggregation (%)
Answers are plain numbers, in %.

// below: answered molecules
{"columns": ["molecule", "quantity_measured", "recorded_value"],
 "data": [
  ["CC1CCCCC1NC(=O)COc1ccc(-n2cnnn2)cc1 (stereo unspecified)", "inhibition of aggregation", 5.2],
  ["CCOc1ccc(NC(=O)CCN2CCN(c3ccccc3)CC2)cc1", "inhibition of aggregation", 8.3],
  ["C1=C(CCNc2ncnc3c2cnn3-c2ccccc2)CCCC1", "inhibition of aggregation", 17.1],
  ["Cc1cccc(C)c1-n1nnnc1SCSc1nnnn1-c1c(C)cccc1C", "inhibition of aggregation", -3.2],
  ["O=C(CN1CCN(c2nc(-c3ccc(Cl)cc3)cs2)CC1)NCc1ccco1", "inhibition of aggregation", 9.3]
]}

For every item below, please supply its inhibition of aggregation.
1. COc1ccc(C)cc1-n1nnnc1SC/C(O)=C(\C#N)c1nc2ccccc2[nH]1
2. COc1cc(C2c3c(n[nH]c3C)C(=O)N2c2ccc(C)cc2)ccc1O (stereo unspecified)

Reply text:
1: -491; 2: -6

For every item below, please supply its inhibition of aggregation.
1. COc1ccccc1-n1c(SCC(N)=O)nnc1-c1ccccc1
2. CCOC(=O)c1cccc(NC(=O)CSc2nc3cccnc3n2C)c1
3. COC(=O)C1=CN(C)C=C(C(=O)OC)C1c1ccc(O)c(OC)c1
4. CCOc1ccc(NC2c3ccccc3C(=O)N2Cc2ccco2)cc1 (stereo unspecified)

Reply text:
1: -24.2; 2: 0.7; 3: -27.8; 4: 6.4

----------
# system_tested: Alpha-2C adrenergic receptor (Homo sapiens)
# assay_info: compounds altering alpha2C-coupled GIRK flux – cell-based, HEK293 alpha2C/GIRK1/2, thallium flux, primary screen (AID 624);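 further: slope of fluorescence ratio to pre-addition baseline per second over 15 to 24 s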
# applied_conditions: thallium flux BTC fluorescence, at 10 µM, actives lie on both sides
Given measured slope, output true (1) if it is greater than or equal to 0.004 and false (0) if not.

Solved cases (10 shown):
{"columns": ["compound", "system_tested", "cat"],
 "data": [
  ["Cc1c(Cl)cccc1NC(=O)CCN1CCCCCC1", "Alpha-2C adrenergic receptor (Homo sapiens)", "true (1)"],
  ["Cc1cc(Br)c(S(=O)(=O)n2nnc3ccccc32)cc1C", "Alpha-2C adrenergic receptor (Homo sapiens)", "true (1)"],
  ["O=C(c1cnc2n(c1=O)CCS2)N(C1CCCCC1)C1CCCCC1", "Alpha-2C adrenergic receptor (Homo sapiens)", "true (1)"],
  ["O=C(Nc1ccc2oc(Cc3ccc(Cl)cc3)nc2c1)c1cccnc1", "Alpha-2C adrenergic receptor (Homo sapiens)", "true (1)"],
  ["O=C(CSc1nc2cc(S(=O)(=O)N3CCOCC3)ccc2o1)NC1CCCc2ccccc21 (stereo not drawn)", "Alpha-2C adrenergic receptor (Homo sapiens)", "false (0)"],
  ["Cn1c(=O)[nH]c(=O)c2c1nc(N1CCc3ccccc3C1)n2CCSc1nc2ccccc2s1", "Alpha-2C adrenergic receptor (Homo sapiens)", "false (0)"],
  ["CCOCCCNC(=O)c1cc2sc(Cl)cc2n1CC", "Alpha-2C adrenergic receptor (Homo sapiens)", "true (1)"],
  ["O=C(O)c1ccc(NC(=O)c2cccs2)cc1", "Alpha-2C adrenergic receptor (Homo sapiens)", "true (1)"],
  ["CC(NC(=O)c1ccco1)c1ccc2c(c1)OCCO2 (stereo not drawn)", "Alpha-2C adrenergic receptor (Homo sapiens)", "true (1)"],
  ["CCOC(=O)Cn1nnnc1CN(Cc1ccc(OC)cc1)Cc1cc2cc(C)ccc2[nH]c1=O", "Alpha-2C adrenergic receptor (Homo sapiens)", "true (1)"]
]}

Inquiry: Exam item: decide whether the reported slope for "COc1ccc(C2(C(=O)Nc3c(C)n(C)n(-c4ccccc4)c3=O)CCCC2)cc1OC" is at least 0.004.
Reply text: true (1)

----------
# assay_info: TLR3 IRF3 reporter activation blockers – cell-based, poly I:C stimulus, luciferase, 10K MLSCN set, primary screen (AID 602277)
# applied_conditions: HEK293-TLR3 RL24 IRF3 luciferase reporter, at 10 µM
Calls of active or inactive are those of the source.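 Rule for the calls: active = inhibition of the reporter signal at or above 50%; inactive = inhibition below 50%.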
Allowed answers: active, inactive

{"columns": ["molecule", "cat"],
 "data": [
  ["COc1ccc(-c2ccc(CCC(=O)O)n2NC(=O)c2cccs2)cc1", "inactive"],
  ["Nc1ccc(Sc2nnnn2-c2ccccc2)c(Cl)c1", "inactive"],
  ["COc1ccc(CCn2c(-c3ccco3)nc3ccccc3c2=O)cc1OC", "inactive"],
  ["Cc1cc(C)n(CC(=O)NC2CCCCC2)n1", "inactive"],
  ["O=C(CN1C(=O)COCC1=O)N1CCOCC1", "inactive"],
  ["O=C(c1csc2ccccc12)N1CCCCCC1", "inactive"]
]}

Would you kindly look at the next entry?
Inquiry: Fill in: this test's call for CN(C)c1ccc(/C=C/C(O)=C2/C(=O)N(C)C3(C)CC2c2ccccc2O3)cc1 (configuration not stated) is ___
Reply text: inactive

----------
# assay_info: inhibitors of larval lipid processing in zebrafish, primary screen, whole organism, PED6 fluorescence, gall bladder and intestine (AID 686);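 further: larvae 5 to 7 days old with five fish per well; signal comes from phospholipase A2 cleavage of quenched PED6 carried via bile; overnight exposure to compound and PED6 before scoring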
# applied_conditions: Zebrafish larvae PED6 lipid processing, fluorescence scoring; screened at 20 µM (by protocol)
Calls of active or inactive are those of the source.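 How the source made its calls: active means a full or partial loss of lipid-probe fluorescence in the fish gall bladder, intestine or both, judged by eye; inactive means no fluorescence loss, or compound toxic to the fish.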
quantity_measured: outcome

// below: answered compounds
{"columns": ["smiles_notation", "recorded_value"],
 "data": [
  ["O=C(Nc1ccon1)c1cccc(S(=O)(=O)N2CCCC2)c1", "inactive"],
  ["CCOC(=O)c1c2n(c3ccc(O)cc13)CCCCC2", "inactive"],
  ["O=C(Cn1c(=O)oc2ccccc21)N1CCN(c2ccccc2)CC1", "inactive"],
  ["Cc1nonc1NC(=O)c1ccccc1Br", "inactive"]
]}

For every item below, please supply its outcome.
1. COc1ccccc1N(CC(=O)NC1CCCC1)C(=O)c1csnn1
2. COC(=O)c1ccc(COC(=O)c2c(C)nn(Cc3ccccc3Cl)c2Cl)o1

Reply text:
["inactive", "inactive"]

----------
# system_tested: Voltage-gated potassium channel subunit beta-2 (Rattus norvegicus)
# assay_info: inhibitors of rat Kvbeta2 reductase activity – biochemical, NADPH fluorescence, primary screen (AID 622);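 further: slope of raw intensity against log time taken from 70 to 1610 s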
# applied_conditions: recombinant KvBeta, 4-cyanobenzaldehyde reduction, at 10 µM, stronger effect = higher value
Given measured fluorescence slope, output 1 if it is greater than or equal to -0.5 and 0 if not.

{"columns": ["molecule", "cat"],
 "data": [
  ["O=C(NC1CCCCCC1)C1CCCN(S(=O)(=O)c2cccs2)C1 (centres undefined)", 1],
  ["O=C1CC(c2cccnc2)c2cc3c(cc2N1)OCO3 (centres undefined)", 0],
  ["CCN(CC)c1ccc(C(=O)n2cnc3ccccc32)cc1", 1],
  ["O=c1cc(CSc2nnnn2-c2ccccc2)nc2scc(-c3ccccc3)n12", 1],
  ["COc1ccccc1C(=O)NCC(c1cccnc1)N(C)C (centres undefined)", 1],
  ["CN(C)S(=O)(=O)c1ccc(S(=O)(=O)N(Cc2ccco2)Cc2ccccc2Cl)cc1", 0],
  ["CC(C)OC(=O)c1cc(NC(=O)C2C3CCC(O3)C2C(=O)O)cc(C(=O)OC(C)C)c1 (centres undefined)", 1],
  ["O=C(NCc1nc2ccccc2[nH]1)c1ccco1", 1]
]}

Inquiry: Exam item: decide whether the reported fluorescence slope for Cc1ccc(O)c(-c2cc(C(=O)Nc3ccc(S(=O)(=O)N4CC(C)OC(C)C4)cc3)[nH]n2)c1 (centres undefined) is at least -0.5.
Reply text: 1

Inquiry: Exam item: decide whether the reported fluorescence slope for "Cc1ccc(C)c(CSc2nnc(CCN)o2)c1" is at least -0.5.
Reply text: 1

Inquiry: Exam item: decide whether the reported fluorescence slope for "Cc1ccccc1-c1nc(CN2CCC(C(=O)NCCCN3CCCC3)CC2)c(C)o1" is at least -0.5.
Reply text: 0
